Items are presented alongside their recorded pKd.
system: T1, human CD73 (human, UniProt P21589 27-549)
T1 construct: the antigen of the Biacore assay is only called human CD73 antigen; also called human CD73 antigen; Recombinant Human CD73-6xHis
T1 sequence: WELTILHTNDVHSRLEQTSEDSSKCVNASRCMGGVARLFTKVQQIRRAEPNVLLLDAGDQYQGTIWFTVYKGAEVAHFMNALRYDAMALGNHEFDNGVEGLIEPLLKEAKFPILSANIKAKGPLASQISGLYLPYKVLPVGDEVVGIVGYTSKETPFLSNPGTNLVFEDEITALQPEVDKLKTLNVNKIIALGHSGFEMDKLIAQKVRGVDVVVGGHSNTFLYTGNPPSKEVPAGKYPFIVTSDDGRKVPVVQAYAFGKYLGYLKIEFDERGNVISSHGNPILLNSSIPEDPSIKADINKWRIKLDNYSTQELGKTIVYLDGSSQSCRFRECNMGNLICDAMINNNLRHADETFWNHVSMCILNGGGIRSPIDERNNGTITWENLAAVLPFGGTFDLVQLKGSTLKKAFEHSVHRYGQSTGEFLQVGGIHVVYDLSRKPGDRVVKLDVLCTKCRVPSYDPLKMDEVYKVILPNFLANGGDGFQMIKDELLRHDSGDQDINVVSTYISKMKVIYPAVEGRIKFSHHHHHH
assayComment: Biacore SPR
Quick note: pKd values are minus log10 of concentrations in mol/L.

Illustrative cases are given below, each with its answer.
- binder: "HuB10/HdB7 (antibody, V domains shown, Humanized 10H5; also called HuVHB10/HdVLB7; humanized 10H5 derivative) VH: QVQLVQSGAEVKKPGASVKVSCKASGYVFSSYWINWVRQAPGQGLEWMGQIYPGDGNTNYNRNFKGRVTLTADKSTSTAYMELSSLRSEDTAVYYCAGFADWGQGTLVTVSS VL: DIQLTQSPSSLSASVGDRVTITCRASQDIGDSLIWLQQKPGKAPKRLIYATSSLDSGVPSRFSGSRSGTDYTLTISSLQPEDFATYYCQQYSGYPLTFGQGTKVEIK"
  pKd: 9.17
- binder: "HuB10/HdB6 (antibody, V domains shown, Humanized 10H5; also called HuVHB10/HdVLB6; humanized 10H5 derivative) VH: QVQLVQSGAEVKKPGASVKVSCKASGYVFSSYWINWVRQAPGQGLEWMGQIYPGDGNTNYNRNFKGRVTLTADKSTSTAYMELSSLRSEDTAVYYCAGFADWGQGTLVTVSS VL: DIQLTQSPSSLSASVGDRVTITCRASQDIGDSLIWLQQKPGKAIKRLIYATSSLDSGVPSRFSGSRSGTDYTLTISSVQPEDFATYYCQQYSGYPLTFGQGTKVEIK"
  pKd: 9.10

# context switch: different binder, same pKd
Briefly, pKd measured for HuB9/HdB7 (antibody, V domains shown, Humanized 10H5; also called HuVHB9/HdVLB7; humanized 10H5 derivative) VH: QVQLVQSGAEVKKPGASVKVSCKASGYVFSSYWINWVRQAPGQGLEWMGQIYPGDGNTNYNRNFKGRATLTADKSTSTAYMELSSLRSEDTAVYFCAGFADWGQGTLVTVSS VL: DIQLTQSPSSLSASVGDRVTITCRASQDIGDSLIWLQQKPGKAPKRLIYATSSLDSGVPSRFSGSRSGTDYTLTISSLQPEDFATYYCQQYSGYPLTFGQGTKVEIK : 9.21
